This collection of values is drawn from PubChem BioAssay (NCI).

Please go through the items and note down their growth.
# Test system: HS 578T breast
# assay: NCI-60 one-dose screen, 48 h (100 = growth as untreated, 0 = no growth, -100 = all killed)
# condition: 10 µM unless noted
This is part of a sample that, as a whole, favours compounds with a hit. Of some 83,000 tested, about 20% had one in any assay.
Answers are plain numbers, in %.

Would you please look over these solved cases?
molSmiles	readoutUnit	growth
COc1cc(OC)c2sc(-c3ccc(-n4cncc4-c4cc(OC)c(OC)c(OC)c4)cc3)nc2c1	%	62.2
Cc1c2ccncc2c(C)c2c1c1cc(CO)ccc1n2C	%	24.3
COc1ccccc1C(=O)Nc1cccc(NC(=O)c2ccoc2C)c1	%	40.2
O=C(CC(=O)Nc1cccc(C(=O)O)c1)Nc1cccc(C(=O)O)c1	%	100
NC(=O)c1cnc(Nc2cccc(N)c2)nc1NCCCNC(=O)C1CCC1	%	72.8

Batch lookup, growth per entry.
1. C#CC#CC#CC#CC#CC#CC#CC#CC[C@@H]1OC[C@@H](COC(=O)O[C@@H](C(=O)O[C@H]2C[C@@]3(O)[C@@H](OC(=O)c4ccccc4)[C@@H]4[C@]5(OC(C)=O)CO[C@@H]5C[C@H](O)[C@@]4(C)C(=O)[C@H](OC(C)=O)C(=C2C)C3(C)C)[C@@H](NC(=O)c2ccccc2)c2ccccc2)O1
2. COc1ccc2cc(-c3ccnc4c(N=Nc5ccc(Cl)cc5)c(N)nn34)ccc2c1
3. CCc1n(Cc2ccc3ccccc3n2)cc[n+]1Cc1ccc2ccccc2n1

## Output
94.1
92.9
44.8

====

# System: SF-268 CNS
# assay: NCI-60 one-dose screen, 48 h (100 = growth as untreated, 0 = no growth, -100 = all killed)
# condition: 10 µM unless noted
The panel holds about 83,000 compounds, 20% with a hit somewhere; the sample as a whole holds those more often.
readoutType: growth (%)
Give bare numbers, in %.

>>> df
                                  molsmiles  reported
0  O=C1/C(=C/c2ccc(F)cc2)CN(C(=O)C(Cl)Cl)C/C1=C\c1ccc(F)cc1     -30.9

Batch lookup, growth per entry.
1. O=C1c2ccccc2C(=O)C1c1ccc(Br)cc1
2. Cc1n[nH]c2ccc(Br)cc2c1=O
3. O=C(N/N=C\c1cccc([N+](=O)[O-])c1)N/N=C/c1cccc([N+](=O)[O-])c1

## Output
113
107
102

====

# System: NCI-H23 lung
# assay: NCI-60 one-dose screen, 48 h
# condition: 10 µM unless noted
Compounds without any hit were thinned out: in the full panel of roughly 83,000, 20% have a hit. Activity calls are given as the source filed them. The calls were made as follows: active = growth percent below 10; inactive = the rest.
Answer with one of the outcomes given here: active, inactive

Below, 5 compounds whose answers are already recorded.
>>> print(df.to_string())
                                  molsmiles       cat
0  Cc1ccc(-c2nc3nc(-c4ccccc4)nc(N4CCCN(S(C)(=O)=O)CC4)c3o2)cc1  inactive
1   C#CCn1cnc2cnc(Nc3cccc(NC(=O)C=C)c3)nc21  inactive
2  O=C(CSc1nnc(-c2cc(-c3ccccc3)nc3ccccc23)n1-c1ccccc1)Nc1ccc(C(=O)/C=C/c2ccc(Cl)cc2)cc1  inactive
3     O=C(Cc1ccccc1)Nc1cccc(N=Cc2ccccc2O)c1  inactive
4              O=C(Nc1ccc(Br)cc1)C1=NCCCCN1  inactive

Okay, next one:
## Input Which outcome did this test record for the compound `C=C1C(=O)O[C@H]2[C@H]1CC/C(COC(=O)c1ccc(C(=O)O)s1)=C\CC[C@@]1(C)O[C@@H]21` ?
## Output inactive

====

# Tested on: SF-539 CNS
# assay: NCI-60 one-dose screen, 48 h (100 = growth as untreated, 0 = no growth, -100 = all killed)
# condition: 10 µM unless noted
# Description: Cells are grown in 96 well plates and exposed to the test compound for 48 hours. Compounds are tested at a single concentration, which is 10^-5 M for most compounds. The reported endpoint is percent growth (GI% or GIPRCNT), where numbers from 0 - 100% represent growth inhibition, and numbers from -100% - 0 represent cell death. For example, a value of 40 represents 60% growth inhibition. A value of 0 means no net growth occurred over the course of the experiment. […]
Compounds without any hit were thinned out: in the full panel of roughly 83,000, 20% have a hit.
Please go through the items and note down their growth.
One number for each entry, in %.

Would you please look over these solved cases?
                                  molsmiles  measuredtarget  readouttype  reported
0  COc1ccc(/C=C(/C(=O)n2cnnn2)c2cc(OC)c(OC)c(OC)c2)cc1      SF-539 CNS       growth     -7.92
1  O=C1c2ccccc2C(=O)c2c1cc1c(c2[N+](=O)[O-])OCO1      SF-539 CNS       growth      21.3
2     O=C(NNc1cnccn1)c1nc2cc(F)ccc2n2cccc12      SF-539 CNS       growth      5.57

Batch lookup, growth per entry.
1. N#Cc1nc(-c2ccccc2)oc1S(=O)(=O)N1CCN(c2ccc(F)cc2)CC1
2. CCc1ccc(CCC(=O)Nc2ncc(Cc3ccccc3)s2)o1

## Output
1: 101; 2: -10.1

====

# Tested on: COLO 205 colon
# assay: NCI-60 one-dose screen, 48 h
# condition: 10 µM unless noted
About 83,000 compounds went through this panel and 20% of them were active in at least one assay; those are over-represented in the sample as a whole. The source made the active and inactive calls. How the source made its calls: active means growth percent below 10; inactive means the rest.
Answer with one of the outcomes given here: YES = active, NO = inactive

Below, 3 compounds whose answers are already recorded.
>>> df
                                  molsmiles  measuredtarget  cat
0  CCn1cc(CNc2ccc(C(=O)Nc3cc4cc(OC)c(OC)cc4c(C)n3)cc2)cn1  COLO 205 colon   NO
1  Cc1nnc(-c2ccc3c(c2)nc(/C=C/c2ccccc2)n3C2CCCCC2)o1  COLO 205 colon   NO
2  CNC(=O)c1cc(Oc2cccc3nc(NC(=O)Nc4cc(C(F)(F)F)ccc4Cl)ccc23)ccn1  COLO 205 colon   NO

## Input Which outcome did this test record for the compound `COc1ccc(/C=C(/C(=O)n2cnnn2)c2cc(OC)c(OC)c(OC)c2)cc1` ?
## Output YES

## Input Which outcome did this test record for the compound `COc1ccc(-c2ccc(-c3ccc(C(=N)N)nc3)s2)cc1Cl` ?
## Output YES

====

# System: HS 578T breast
# assay: NCI-60 one-dose screen, 48 h
# condition: 10 µM unless noted
Compounds without any hit were thinned out: in the full panel of roughly 83,000, 20% have a hit. Active and inactive are the calls of the source. Rule for the calls: active = growth percent below 10; inactive = the rest.
Answer with one of the outcomes given here: yes (1) for active, no (0) for inactive

Below, 3 compounds whose answers are already recorded.
>>> df
                                   compound     cat
0  C=C(c1ccc(OC)c(/C=C/C(=O)c2ccc3c(c2)OCO3)c1)c1cc(OC)c(OC)c(OC)c1  no (0)
1     CC1CCN(C(=S)SCC(=O)NC(=O)c2ccccc2)CC1  no (0)
2  Cc1nc2cc(O)c(O)cc2cc1Oc1ccc(NC(=O)Nc2ccc(Cl)c(Cl)c2)cc1  no (0)

## Input Which outcome did this test record for the compound `COc1ccc(Nc2ncccc2/C=C/C(=O)c2cc(OC)c(OC)c(OC)c2)cc1` ?
## Output no (0)

====

# Tested on: SK-OV-3 ovarian
# assay: NCI-60 one-dose screen, 48 h (100 = growth as untreated, 0 = no growth, -100 = all killed)
# condition: 10 µM unless noted
This is part of a sample that, as a whole, favours compounds with a hit. Of some 83,000 tested, about 20% had one in any assay.
# label = Yes if growth < 60% else No

Below, 3 compounds whose answers are already recorded.
>>> print(df.to_string())
                                   compound  cat
0  COc1cc(OC)cc(-c2ccc(-c3ccc(C(=N)N)o3)o2)c1   No
1  O=C(/C=C/c1cccc(Cl)c1Cl)Nc1ncc(Cc2ccccc2Cl)s1   No
2  CN(CCCNC(=O)CCOCCOCCOCCNC(=O)Cc1ccc2ccc3cccc4ccc1c2c34)CCCNc1cc(-c2ccc3ccccc3c2)nc2ccccc12  Yes

## Input # TODO verify growth < 60% strictly for this compound: `COc1ccc(/C(C)=C(\c2ccc(Cl)cc2)c2ccc(OCCN3CCCCC3)cc2)cc1`
## Output No

## Input # TODO verify growth < 60% strictly for this compound: `O=C(O)c1cn(C2CC2)c2cc(N3CCN(C(=O)Nc4nc(-c5ccc(Br)cc5)cs4)CC3)c(F)cc2c1=O`
## Output Yes

## Input # TODO verify growth < 60% strictly for this compound: `Cc1ccc(S(=O)(=O)Oc2ccc3sc4cccc(NCCN(C)C)c4c(=O)c3c2)cc1`
## Output Yes

## Input # TODO verify growth < 60% strictly for this compound: `CN(C)S(=O)(=O)Oc1ccc(-c2sc3cc(OS(=O)(=O)N(C)C)ccc3c2C(=O)c2ccc(OCCN3CCCCC3)cc2)cc1`
## Output No

## Input # TODO verify growth < 60% strictly for this compound: C/C=C(\C)C(=O)N[C@H]1C(O)C[C@]2(C)C3CC[C@@]4(C)C(CC[C@@H]4C(C)N(C)C)C3CCC2C1O (stereo partly drawn)
## Output No
